Recorded values, source ChEMBL document CHEMBL5316295.

assay: Binding affinity to Clostridioides difficile-specific DNA adenine methyltransferase PDB 7RFM by MicroCal PEAQ ITC analysis
quantityName: pKd
Reminder that pKd means the negative base-10 logarithm of the concentration expressed in mol/L.

IN: Param item = CC(C)N(CCCNC(=O)Nc1ccc(C(C)(C)C)cc1)C[C@H]1O[C@@H](n2ccc3c(N)ncnc32)[C@H](O)[C@@H]1O ; retrieve measured pKd.
OUT: 4.74

###

target: UniProt Q9H4Z3; assay: Inhibition of human PCIF1 using m7GpppAmG as substrate and SAM as cosubstrate at 10 uM incubated for 15 mins
Sequence (Q9H4Z3 whole entry): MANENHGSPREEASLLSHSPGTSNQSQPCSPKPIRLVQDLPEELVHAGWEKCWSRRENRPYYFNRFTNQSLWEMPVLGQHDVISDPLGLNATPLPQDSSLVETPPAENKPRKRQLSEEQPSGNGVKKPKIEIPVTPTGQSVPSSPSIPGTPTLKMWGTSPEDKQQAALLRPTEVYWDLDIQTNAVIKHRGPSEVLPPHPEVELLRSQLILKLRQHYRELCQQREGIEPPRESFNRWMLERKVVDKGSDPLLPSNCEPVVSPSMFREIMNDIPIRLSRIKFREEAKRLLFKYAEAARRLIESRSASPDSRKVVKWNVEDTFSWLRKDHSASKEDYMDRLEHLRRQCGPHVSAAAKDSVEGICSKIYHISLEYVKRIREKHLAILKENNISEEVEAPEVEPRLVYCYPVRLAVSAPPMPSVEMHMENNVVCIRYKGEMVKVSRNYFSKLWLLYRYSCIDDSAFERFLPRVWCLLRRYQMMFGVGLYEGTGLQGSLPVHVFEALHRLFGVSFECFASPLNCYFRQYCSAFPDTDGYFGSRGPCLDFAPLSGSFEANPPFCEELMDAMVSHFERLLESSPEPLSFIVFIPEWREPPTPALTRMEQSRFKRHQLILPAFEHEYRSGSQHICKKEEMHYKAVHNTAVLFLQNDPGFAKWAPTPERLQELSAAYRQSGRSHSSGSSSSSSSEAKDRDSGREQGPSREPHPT
Active and inactive are the calls of the source. The rule behind the calls is not given here.
Can you answer with just one of these options? active, inactive

IN: I would be grateful if you could indicate the recorded call for OC[C@H]1O[C@@H](n2cnc3c(NCCCc4ccc(O)cc4)ncnc32)[C@H](O)[C@@H]1O .
OUT: inactive

IN: I would be grateful if you could indicate the recorded call for CC(C)(C)OC(=O)N1CCC(CCNc2ncnc3c2ncn3[C@@H]2O[C@H](CO)[C@@H](O)[C@H]2O)CC1 .
OUT: inactive

IN: I would be grateful if you could indicate the recorded call for Nc1ncnc2c1ncn2[C@@H]1O[C@H](C[C@@H](N)CC[C@H](N)C(=O)O)[C@@H](O)[C@H]1O .
OUT: active

IN: I would be grateful if you could indicate the recorded call for CC(C)(C)OC(=O)N1CCC(CCCNc2ncnc3c2ncn3[C@@H]2O[C@H](CO)[C@@H](O)[C@H]2O)CC1 .
OUT: inactive

###

target: Histone-lysine N-methyltransferase, H3 lysine-79 specific (Homo sapiens) (UniProt Q8TEK3); test: Inhibition of human DOT1L using oligonucleosome as substrate and 3H-SAM as cosubstrate at 10 uM pretreated with compound for 20 mins in presence of oligonucleosome followed by cosubstrate addition and measured after 1 hr; conditions: time 80.0 min
Sequence (Q8TEK3 whole entry, looked up): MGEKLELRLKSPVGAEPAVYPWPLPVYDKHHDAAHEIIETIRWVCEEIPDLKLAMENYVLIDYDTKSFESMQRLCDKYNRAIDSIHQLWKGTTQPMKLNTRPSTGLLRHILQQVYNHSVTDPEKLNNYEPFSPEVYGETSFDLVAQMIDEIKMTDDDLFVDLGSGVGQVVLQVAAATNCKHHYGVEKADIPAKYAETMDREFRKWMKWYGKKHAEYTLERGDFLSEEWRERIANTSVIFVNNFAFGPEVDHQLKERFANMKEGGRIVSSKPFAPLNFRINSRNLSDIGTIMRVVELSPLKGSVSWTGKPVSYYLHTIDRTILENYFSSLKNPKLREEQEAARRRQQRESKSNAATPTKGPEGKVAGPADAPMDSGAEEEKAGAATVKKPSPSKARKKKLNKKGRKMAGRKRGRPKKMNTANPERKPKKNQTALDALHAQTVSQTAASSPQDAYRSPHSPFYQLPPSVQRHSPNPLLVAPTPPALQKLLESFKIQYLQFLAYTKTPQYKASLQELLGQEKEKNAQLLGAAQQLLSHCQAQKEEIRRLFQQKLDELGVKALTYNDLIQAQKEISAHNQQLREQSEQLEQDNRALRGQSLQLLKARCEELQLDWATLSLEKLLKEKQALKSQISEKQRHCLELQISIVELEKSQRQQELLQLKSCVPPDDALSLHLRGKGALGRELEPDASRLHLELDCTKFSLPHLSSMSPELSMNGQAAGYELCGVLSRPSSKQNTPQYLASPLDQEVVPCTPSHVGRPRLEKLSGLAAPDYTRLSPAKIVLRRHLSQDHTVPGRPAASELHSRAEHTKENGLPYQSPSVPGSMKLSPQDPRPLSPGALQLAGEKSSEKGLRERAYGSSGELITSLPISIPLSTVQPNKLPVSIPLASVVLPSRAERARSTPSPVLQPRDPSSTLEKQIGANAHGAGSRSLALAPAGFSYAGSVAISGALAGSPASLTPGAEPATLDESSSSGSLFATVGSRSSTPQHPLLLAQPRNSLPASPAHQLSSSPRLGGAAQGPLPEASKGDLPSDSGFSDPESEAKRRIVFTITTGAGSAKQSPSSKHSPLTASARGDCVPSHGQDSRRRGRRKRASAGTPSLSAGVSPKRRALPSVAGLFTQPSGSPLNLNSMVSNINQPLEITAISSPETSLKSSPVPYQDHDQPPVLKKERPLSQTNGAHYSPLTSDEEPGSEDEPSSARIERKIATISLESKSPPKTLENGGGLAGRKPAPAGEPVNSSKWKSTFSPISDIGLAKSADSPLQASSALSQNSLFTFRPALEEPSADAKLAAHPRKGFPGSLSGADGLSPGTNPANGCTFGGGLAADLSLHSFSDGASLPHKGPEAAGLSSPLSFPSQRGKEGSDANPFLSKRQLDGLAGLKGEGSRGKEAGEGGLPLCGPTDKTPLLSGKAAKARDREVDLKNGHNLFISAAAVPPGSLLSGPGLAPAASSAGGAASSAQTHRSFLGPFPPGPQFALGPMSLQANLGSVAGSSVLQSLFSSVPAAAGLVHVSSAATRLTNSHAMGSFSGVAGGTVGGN
Activity calls are given as the source filed them. No cut-off for these calls is given here.
Can you answer with just one of these options? 1 (active), 0 (inactive)

IN: I would be grateful if you could indicate the recorded call for CC(C)(C)OC(=O)N1CCC(CCCNc2ncnc3c2ncn3[C@@H]2O[C@H](CO)[C@@H](O)[C@H]2O)CC1 .
OUT: 0

IN: I would be grateful if you could indicate the recorded call for CC(C)(C)OC(=O)N1CCC(CCNc2ncnc3c2ncn3[C@@H]2O[C@H](CO)[C@@H](O)[C@H]2O)CC1 .
OUT: 0

IN: I would be grateful if you could indicate the recorded call for OC[C@H]1O[C@@H](n2cnc3c(NCCCc4ccc(O)cc4)ncnc32)[C@H](O)[C@@H]1O .
OUT: 0

IN: I would be grateful if you could indicate the recorded call for Nc1ncnc2c1ncn2[C@@H]1O[C@H](CSCC[C@H](N)C(=O)O)[C@@H](O)[C@H]1O .
OUT: 1

###

assay: Inhibition of Clostridioides difficile-specific DNA adenine methyltransferase PDB 8CXS using 5'-CGA TTC AAA AAG TCC CAA G-3' and 3'-GCT AAG TTT TTC AGG GTT C-5' as substrate and SAM as cosubstrate preincubated for 5 mins followed by substrate and cosubstrate addition and measured after 3 mins by MTase-Glo assay
quantityName: IC50 (µM)
Hi! Could you send only the number? It should be in µM, unit omitted.

IN: Param item = CSC[C@H]1O[C@@H](n2cnc3c(N)ncnc32)[C@H](O)[C@@H]1O ; retrieve measured IC50.
OUT: 18

###

molecular target: Protein arginine N-methyltransferase 1 (Homo sapiens) (UniProt Q99873); assay: Inhibition of PRMT1 (unknown origin) using histone H4 as substrate and 3H-SAM as cosubstrate at 10 uM pretreated with compound for 20 mins in presence of histone H4 followed by cosubstrate addition and measured after 1 hr; details: time 80.0 min
Sequence (Q99873 whole entry, looked up): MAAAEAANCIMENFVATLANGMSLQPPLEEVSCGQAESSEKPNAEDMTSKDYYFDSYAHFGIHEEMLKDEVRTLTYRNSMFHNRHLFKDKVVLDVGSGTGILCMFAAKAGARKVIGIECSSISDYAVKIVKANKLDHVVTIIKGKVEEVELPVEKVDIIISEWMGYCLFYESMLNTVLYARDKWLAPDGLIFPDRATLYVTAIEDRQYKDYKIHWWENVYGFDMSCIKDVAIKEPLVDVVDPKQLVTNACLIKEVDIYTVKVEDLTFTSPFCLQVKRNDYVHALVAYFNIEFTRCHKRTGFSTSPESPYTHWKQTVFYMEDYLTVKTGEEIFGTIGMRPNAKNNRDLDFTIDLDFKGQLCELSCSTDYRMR
Activity calls are given as the source filed them. The rule behind the calls is not given here.
Can you answer with just one of these options? active, inactive

IN: I would be grateful if you could indicate the recorded call for CC(C)(C)OC(=O)N1CCC(CCNc2ncnc3c2ncn3[C@@H]2O[C@H](CO)[C@@H](O)[C@H]2O)CC1 .
OUT: inactive

IN: I would be grateful if you could indicate the recorded call for CC(C)(C)OC(=O)N1CCC(CCCNc2ncnc3c2ncn3[C@@H]2O[C@H](CO)[C@@H](O)[C@H]2O)CC1 .
OUT: inactive

IN: I would be grateful if you could indicate the recorded call for OC[C@H]1O[C@@H](n2cnc3c(NCCCc4ccc(O)cc4)ncnc32)[C@H](O)[C@@H]1O .
OUT: inactive

IN: I would be grateful if you could indicate the recorded call for Nc1ncnc2c1ncn2[C@@H]1O[C@H](CSCC[C@H](N)C(=O)O)[C@@H](O)[C@H]1O .
OUT: active

###

test: Inhibition of Clostridioides difficile-specific DNA adenine methyltransferase mediated methylation using 5'-CGA TTC AAA AAG TCC CAA G-3' and 3'-GCT AAG TTT TTC AGG GTT C-5' as substrate and SAM as cosubstrate preincubated for 5 mins followed by substrate and cosubstrate addition and measured after 3 mins by MTase glo assay
pIC50: −log10 of the molar value.
Label rule, in plain words: pIC50 of 5 and up is 1.0, under 5 is 0.0.

IN: Answer whether pIC50 of OC[C@H]1O[C@@H](n2cnc3c(N[C@H]4CCc5ccccc54)ncnc32)[C@H](O)[C@@H]1O is greater than or equal to 5.
OUT: 0.0

IN: Answer whether pIC50 of OC[C@H]1O[C@@H](n2cnc3c(NCc4ccccc4)ncnc32)[C@H](O)[C@@H]1O [N6-BENZYLADENOSINE] is greater than or equal to 5.
OUT: 0.0

IN: Answer whether pIC50 of OC[C@H]1O[C@@H](n2cnc3c(NCCCC4CCNCC4)ncnc32)[C@H](O)[C@@H]1O is greater than or equal to 5.
OUT: 1.0

IN: Answer whether pIC50 of OC[C@H]1O[C@@H](n2cnc3c(NCCCCc4ccccc4)ncnc32)[C@H](O)[C@@H]1O is greater than or equal to 5.
OUT: 1.0

IN: Answer whether pIC50 of CSC[C@H]1O[C@@H](n2cnc3c(N)ncnc32)[C@H](O)[C@@H]1O [METHYLTHIOADENOSINE] is greater than or equal to 5.
OUT: 0.0
